tested on: Aspergillus fumigatus strain IP 864.64; test: In vitro antifungal growth inhibition on microtitre plates (optical density 590 nm), compounds alone or as mixtures (Wadley method); assay type: cell-based; conditions: Aspergillus fumigatus, IP864.64, 48 h, second study; strain IP 864.64; RPMI 1640 medium enriched with 2% glucose; 48 hours at 30° C.; read-out: EC50
EXPERIMENTAL_ENDPOINT: EC50 (µg/mL)

Consider the worked cases shown below.
CCC(C)n1ncn(-c2ccc(N3CCN(c4ccc(OCC5COC(Cn6cncn6)(c6ccc(Cl)cc6Cl)O5)cc4)CC3)cc2)c1=O (stereo not shown)
0.187
OC(Cn1cncn1)(Cn1cncn1)c1ccc(F)cc1F
125

1 = CCN(C)C=Nc1cc(C)c(Oc2ccc(C#N)c(C(F)(F)F)c2)cc1C
2 = CCN(C)C=Nc1cc(C)c(Oc2ccc(Cl)c(C(F)(F)F)c2)cc1C
Endpoint returns whichever of 1 and 2 has the numerically higher EC50. Returns: label corresponding to the selected item.
2
